# maps each entry to its IC50
Target: human mGlu2 receptor (Homo sapiens)
Construct: expressed in transfected cells; host or cells: CHO cells
Sequence (Q14416 19-872): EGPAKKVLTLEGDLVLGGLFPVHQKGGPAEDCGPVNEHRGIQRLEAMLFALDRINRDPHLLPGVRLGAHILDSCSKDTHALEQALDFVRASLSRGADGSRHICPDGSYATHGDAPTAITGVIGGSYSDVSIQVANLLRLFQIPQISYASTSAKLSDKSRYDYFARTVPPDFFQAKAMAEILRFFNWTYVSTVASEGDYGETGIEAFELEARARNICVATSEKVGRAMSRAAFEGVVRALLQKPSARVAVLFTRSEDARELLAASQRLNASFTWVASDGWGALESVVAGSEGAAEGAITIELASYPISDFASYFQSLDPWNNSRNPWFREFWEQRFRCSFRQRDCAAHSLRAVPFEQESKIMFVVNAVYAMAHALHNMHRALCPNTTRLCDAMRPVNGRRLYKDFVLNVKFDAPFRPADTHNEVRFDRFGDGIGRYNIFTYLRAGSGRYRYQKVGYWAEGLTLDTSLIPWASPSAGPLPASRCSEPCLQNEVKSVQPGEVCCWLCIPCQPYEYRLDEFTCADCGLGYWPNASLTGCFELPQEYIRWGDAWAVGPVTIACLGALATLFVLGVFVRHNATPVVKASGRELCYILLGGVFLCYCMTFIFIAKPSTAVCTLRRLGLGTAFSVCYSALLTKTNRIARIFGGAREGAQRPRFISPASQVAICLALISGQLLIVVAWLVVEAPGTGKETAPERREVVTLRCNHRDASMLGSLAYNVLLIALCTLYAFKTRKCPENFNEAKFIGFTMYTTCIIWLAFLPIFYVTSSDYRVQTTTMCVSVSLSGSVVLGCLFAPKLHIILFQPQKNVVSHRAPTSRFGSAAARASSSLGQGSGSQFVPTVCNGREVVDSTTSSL
Test: [35S]GTPγS binding assay (mGluR2 negative allosteric modulation, glutamate ~EC80 60 μM)
Assay type: biochemical
Conditions: membranes from CHO cells transfected with human mGlu2 receptor; glutamate ~EC80 (60 μM); pIC50 = −log IC50 (M); read-out: GTPγS-hmGluR2 anGT pIC50 (converted)
READOUT LABEL: IC50

{"columns": ["COMPOUND", "READOUT LABEL", "OBSERVED MEASUREMENT"],
 "data": [
  ["C[C@H]1CN(c2ccc(C(F)(F)F)cc2)C(=O)c2c(NC(=O)c3cc(N)[nH]n3)cnn21", "IC50", "1.38e-07 M"],
  ["Cc1ccnc(N)c1C(=O)Nc1cnn2c1C(=O)N(c1ccc(C(F)(F)F)cc1)C[C@@H]2C (racemic)", "IC50", "2.69e-08 M"],
  ["COc1cccc(C(=O)Nc2cnn3c2C(=O)N(c2ccc(C(F)(F)F)cc2)C[C@@H]3C)c1F", "IC50", "2.24e-08 M"],
  ["Cc1cc(C(=O)Nc2cnn3c2C(=O)N(c2ccc(C(F)(F)F)c(F)c2)C[C@@H]3C)ccn1", "IC50", "7.41e-09 M"]
]}

====

Friendly reminder: melting point below 200 °C is 1, at or above is 0.

{"columns": ["COMPOUND", "CLASS ASSIGNMENT"],
 "data": [
  ["COCC1CN(c2ccc(C(F)(F)F)cc2)C(=O)c2c(NC(=O)c3ccccc3F)cnn21 (single isomer, unassigned) [Co. No. 62b]", 1],
  ["COCc1cc(N2C[C@H](C)n3ncc(NC(=O)c4ccc(N)nc4)c3C2=O)ccc1C(F)(F)F", 0],
  ["Cc1cc(C(=O)Nc2cnn3c2C(=O)N(c2ccc(C(F)(F)F)c(Cl)c2)C[C@@H]3C)cc(Cl)n1", 1],
  ["O=C(Nc1cnn2c1C(=O)N(c1ccc(C(F)(F)F)cc1)CC2)c1cccnc1", 1],
  ["C[C@H]1CN(c2ccc(C(F)(F)F)c(Cl)c2)C(=O)c2c(NC(=O)c3cnccn3)cnn21", 0],
  ["C[C@H]1CN(c2ccc(C(F)(F)F)cc2)C(=O)c2c(NC(=O)Cc3ccccc3)cnn21", 1],
  ["C[C@H]1CN(c2ccc(C(F)(F)F)cc2)C(=O)c2c(NC(=O)c3cncn3C)cnn21", 1],
  ["COc1nc(N2C[C@H](C)n3ncc(NC(=O)c4ccc(N)nc4)c3C2=O)ccc1C(F)(F)F", 0],
  ["C[C@H]1CN(c2ccc(C(F)(F)F)c(F)c2)C(=O)c2c(NC(=O)c3ccc(N)nc3)cnn21", 0],
  ["COc1cc(F)cc(C(=O)Nc2cnn3c2C(=O)N(c2ccc(C(F)(F)F)cc2)C[C@@H]3C)c1", 1],
  ["C[C@H]1CN(c2ccc(OC(F)(F)F)cc2)C(=O)c2c(NC(=O)c3cccnc3N)cnn21", 1],
  ["C[C@H]1CN(c2ccc(C(F)(F)F)cc2)C(=O)c2c(NC(=O)c3cccnc3N)cnn21", 0],
  ["Cc1ccncc1C(=O)Nc1cnn2c1C(=O)N(c1ccc(C(F)(F)F)c(Cl)c1)C[C@@H]2C", 1],
  ["COc1cncc(C(=O)Nc2cnn3c2C(=O)N(c2ccc(C(F)(F)F)c(F)c2)C[C@@H]3C)c1", 1],
  ["Cc1cncc(C(=O)Nc2cnn3c2C(=O)N(c2ccc(Cl)c(Cl)c2)C[C@@H]3C)c1", 1]
]}

Values compiled from patent US10519162B2.
